Record form. Attribute: MIC. Fill in for each entry.
Test system: E. coli NCTC 10418
Assay: MIC against veterinary bacteria in vitro (Diagnostic Sensitivity Test Agar)
Settings: Escherichia coli, NCTC10418, 18 h

Prompt line: Lab note: need MIC with E. coli NCTC 10418 for entry CC(=Cc1nnc(-c2cccnc2)o1)CC1OCC(CC2OC2C(C)C(C)O)C(O)C1O (centres unmarked) , please look it up.
Response line: > 80 µg/mL

Prompt line: Lab note: need MIC with E. coli NCTC 10418 for entry CC(=Cc1nnnn1CCCCCCCCC(=O)O)CC1OCC(CC2OC2C(C)C(C)O)C(O)C1O (centres unmarked) , please look it up.
Response line: > 80 µg/mL

Prompt line: Lab note: need MIC with E. coli NCTC 10418 for entry COC(=O)CCCCCCCCn1nnnc1C=C(C)CC1OCC(CC2OC2C(C)C(C)O)C(O)C1O (centres unmarked) , please look it up.
Response line: > 80 µg/mL

Prompt line: Lab note: need MIC with E. coli NCTC 10418 for entry CC(=Cc1nnc(-c2ccc(N(C)C)cc2)o1)CC1OCC(CC2OC2C(C)C(C)O)C(O)C1O (centres unmarked) , please look it up.
Response line: > 80 µg/mL

Prompt line: Lab note: need MIC with E. coli NCTC 10418 for entry CC(=Cc1nnc(-c2cccc([N+](=O)[O-])c2)o1)CC1OCC(CC2OC2C(C)C(C)O)C(O)C1O (centres unmarked) , please look it up.
Response line: > 80 µg/mL

Prompt line: Lab note: need MIC with E. coli NCTC 10418 for entry CC(=Cc1noc(-c2ccccc2)n1)CC1OCC(CC2OC2C(C)C(C)O)C(O)C1O (centres unmarked) , please look it up.
Response line: > 80 µg/mL

Prompt line: Lab note: need MIC with E. coli NCTC 10418 for entry CC(=Cc1nnc(-c2cccs2)o1)CC1OCC(CC2OC2C(C)C(C)O)C(O)C1O (centres unmarked) , please look it up.
Response line: > 80 µg/mL

Prompt line: Lab note: need MIC with E. coli NCTC 10418 for entry CC(=Cc1nnc(-c2ccco2)o1)CC1OCC(CC2OC2C(C)C(C)O)C(O)C1O (centres unmarked) , please look it up.
Response line: > 80 µg/mL

====

Test system: M. hyopneumoniae JF 435
Experiment: MIC against Mycoplasma in vitro (Friis broth with agarose)
Type: cell-based
Conditions: Mesomycoplasma hyopneumoniae, JF435, 144 h; M. hyopneumoniae JF 435; 6 days at 37° C; read-out: MIC
property.label: MIC (µg/mL)
State just the number; it will be interpreted in µg/mL.

Prompt line: // returns reported MIC for input CSc1ccc(-c2nnc(C=C(C)CC3OCC(CC4OC4C(C)C(C)O)C(O)C3O)o2)cc1 (stereo not drawn) [Example 3]
Response line: 2.5

Prompt line: // returns reported MIC for input CC(=Cc1nnc(-c2ccco2)o1)CC1OCC(CC2OC2C(C)C(C)O)C(O)C1O (stereo not drawn) [Example 8]
Response line: 10

Prompt line: // returns reported MIC for input CC(=Cc1nnnn1Cc1ccc([N+](=O)[O-])cc1)CC1OCC(CC2OC2C(C)C(C)O)C(O)C1O (stereo not drawn) [Example 12]
Response line: 5

Prompt line: // returns reported MIC for input CC(=Cc1nnc(-c2cccnc2)o1)CC1OCC(CC2OC2C(C)C(C)O)C(O)C1O (stereo not drawn) [Example 5]
Response line: 2.5

Prompt line: // returns reported MIC for input CC(=Cc1nnc(-c2cccc(C#N)c2)o1)CC1OCC(CC2OC2C(C)C(C)O)C(O)C1O (stereo not drawn) [Example 11]
Response line: 0.25

Prompt line: // returns reported MIC for input CC(=Cc1nnc(-c2ccncc2)o1)CC1OCC(CC2OC2C(C)C(C)O)C(O)C1O (stereo not drawn) [Example 7]
Response line: 2.5

Prompt line: // returns reported MIC for input CC(=Cc1nnc(-c2ccc(S(C)(=O)=O)cc2)o1)CC1OCC(CC2OC2C(C)C(C)O)C(O)C1O (stereo not drawn) [Example 4]
Response line: 0.25

====

Record form. Attribute: MIC. Fill in for each entry.
Tested on: Corynebacterium xerosis 9755
Assay: MIC against human bacteria in vitro (nutrient agar, chocolated horse blood)
Format: cell-based
Details: human; Corynebacterium xerosis 9755; 18 hours at 37° C; read-out: MIC
Description: The activity of the normonyl derivaties of the Examples against various bacteria which are important in diseases of humans, was assayed in vitro using serial dilutions in nurient agar with 5% chocolated horse blood.

Prompt line: // returns reported MIC for input CC(=Cc1nnnn1Cc1ccc([N+](=O)[O-])cc1)CC1OCC(CC2OC2C(C)C(C)O)C(O)C1O (centres unmarked) [Example 12]
Response line: ≥ 100 µg/mL

Prompt line: // returns reported MIC for input CC(=Cc1nnc(-c2cccnc2)o1)CC1OCC(CC2OC2C(C)C(C)O)C(O)C1O (centres unmarked) [Example 5]
Response line: > 128 µg/mL

Prompt line: // returns reported MIC for input CSc1ccc(-c2nnc(C=C(C)CC3OCC(CC4OC4C(C)C(C)O)C(O)C3O)o2)cc1 (centres unmarked) [Example 3]
Response line: > 128 µg/mL

Prompt line: // returns reported MIC for input CC(=Cc1nnnn1CCCCCCCCC(=O)O)CC1OCC(CC2OC2C(C)C(C)O)C(O)C1O (centres unmarked) [Example 14]
Response line: > 128 µg/mL

Prompt line: // returns reported MIC for input CC(=Cc1nnc(-c2cccc([N+](=O)[O-])c2)o1)CC1OCC(CC2OC2C(C)C(C)O)C(O)C1O (centres unmarked) [Example 2]
Response line: > 128 µg/mL

Prompt line: // returns reported MIC for input COC(=O)CCCCCCCCn1nnnc1C=C(C)CC1OCC(CC2OC2C(C)C(C)O)C(O)C1O (centres unmarked) [Example 13]
Response line: > 64 µg/mL

Prompt line: // returns reported MIC for input CC(=Cc1nnc(-c2ccc(S(C)(=O)=O)cc2)o1)CC1OCC(CC2OC2C(C)C(C)O)C(O)C1O (centres unmarked) [Example 4]
Response line: > 64 µg/mL

Prompt line: // returns reported MIC for input CC(=Cc1nnc(-c2cccs2)o1)CC1OCC(CC2OC2C(C)C(C)O)C(O)C1O (centres unmarked) [Example 6]
Response line: 128 µg/mL

====

Record form. Attribute: MIC. Fill in for each entry.
Tested on: P. mirabilis 889
Assay: MIC against human bacteria in vitro (nutrient agar, chocolated horse blood)
Format: cell-based
Conditions: Proteus mirabilis; human; P. mirabilis 889; 18 hours at 37° C; read-out: MIC

Prompt line: // returns reported MIC for input CC(=Cc1nnc(-c2cccs2)o1)CC1OCC(CC2OC2C(C)C(C)O)C(O)C1O (stereo not shown)
Response line: > 128 µg/mL

Prompt line: // returns reported MIC for input CC(=Cc1nnc(-c2ccc(S(C)(=O)=O)cc2)o1)CC1OCC(CC2OC2C(C)C(C)O)C(O)C1O (stereo not shown)
Response line: > 64 µg/mL

Prompt line: // returns reported MIC for input CC(=Cc1nc(-c2ccc([N+](=O)[O-])cc2)no1)CC1OCC(CC2OC2C(C)C(C)O)C(O)C1O (stereo not shown)
Response line: > 64 µg/mL

Prompt line: // returns reported MIC for input CC(=Cc1nnc(-c2cccc([N+](=O)[O-])c2)o1)CC1OCC(CC2OC2C(C)C(C)O)C(O)C1O (stereo not shown)
Response line: > 128 µg/mL

====

Test system: Bacillus subtilis 6633
Experiment: MIC against human bacteria in vitro (nutrient agar, chocolated horse blood)
Format: cell-based
Conditions: human; Bacillus subtilis 6633; 18 hours at 37° C; read-out: MIC
property.label: MIC (µg/mL)
State just the number; it will be interpreted in µg/mL.

Prompt line: Lab note: need MIC with Bacillus subtilis 6633 for entry CC(=Cc1nnc(-c2cccnc2)o1)CC1OCC(CC2OC2C(C)C(C)O)C(O)C1O (stereo not shown) , please look it up.
Response line: 4

Prompt line: Lab note: need MIC with Bacillus subtilis 6633 for entry CC(=Cc1nc(-c2ccc([N+](=O)[O-])cc2)no1)CC1OCC(CC2OC2C(C)C(C)O)C(O)C1O (stereo not shown) , please look it up.
Response line: 16

Prompt line: Lab note: need MIC with Bacillus subtilis 6633 for entry CC(=Cc1nc(-c2ccccc2)no1)CC1OCC(CC2OC2C(C)C(C)O)C(O)C1O (stereo not shown) , please look it up.
Response line: 32

Prompt line: Lab note: need MIC with Bacillus subtilis 6633 for entry CC(=Cc1nnc(-c2cccs2)o1)CC1OCC(CC2OC2C(C)C(C)O)C(O)C1O (stereo not shown) , please look it up.
Response line: 4

Prompt line: Lab note: need MIC with Bacillus subtilis 6633 for entry CC(=Cc1noc(-c2ccccc2)n1)CC1OCC(CC2OC2C(C)C(C)O)C(O)C1O (stereo not shown) , please look it up.
Response line: 2

Prompt line: Lab note: need MIC with Bacillus subtilis 6633 for entry CC(=Cc1nnc(-c2ccc(S(C)(=O)=O)cc2)o1)CC1OCC(CC2OC2C(C)C(C)O)C(O)C1O (stereo not shown) , please look it up.
Response line: 16

Prompt line: Lab note: need MIC with Bacillus subtilis 6633 for entry CC(=Cc1nnc(-c2ccncc2)o1)CC1OCC(CC2OC2C(C)C(C)O)C(O)C1O (stereo not shown) , please look it up.
Response line: 2

Prompt line: Lab note: need MIC with Bacillus subtilis 6633 for entry CC(=Cc1nnc(-c2ccccc2)o1)CC1OCC(CC2OC2C(C)C(C)O)C(O)C1O (stereo not shown) , please look it up.
Response line: 5

Prompt line: Lab note: need MIC with Bacillus subtilis 6633 for entry CC(=Cc1nnc(-c2ccc(N(C)C)cc2)o1)CC1OCC(CC2OC2C(C)C(C)O)C(O)C1O (stereo not shown) , please look it up.
Response line: 2

Prompt line: Lab note: need MIC with Bacillus subtilis 6633 for entry CC(=Cc1nnc(-c2cccc(C#N)c2)o1)CC1OCC(CC2OC2C(C)C(C)O)C(O)C1O (stereo not shown) , please look it up.
Response line: 2

Prompt line: Lab note: need MIC with Bacillus subtilis 6633 for entry CC(=Cc1nnc(-c2cccc([N+](=O)[O-])c2)o1)CC1OCC(CC2OC2C(C)C(C)O)C(O)C1O (stereo not shown) , please look it up.
Response line: 4

Prompt line: Lab note: need MIC with Bacillus subtilis 6633 for entry CSc1ccc(-c2nnc(C=C(C)CC3OCC(CC4OC4C(C)C(C)O)C(O)C3O)o2)cc1 (stereo not shown) , please look it up.
Response line: 4

Prompt line: Lab note: need MIC with Bacillus subtilis 6633 for entry CC(=Cc1nnc(-c2ccco2)o1)CC1OCC(CC2OC2C(C)C(C)O)C(O)C1O (stereo not shown) , please look it up.
Response line: 4

Prompt line: Lab note: need MIC with Bacillus subtilis 6633 for entry CC(=Cc1nnnn1Cc1ccc([N+](=O)[O-])cc1)CC1OCC(CC2OC2C(C)C(C)O)C(O)C1O (stereo not shown) , please look it up.
Response line: 100

Values from patent US4861788A
